Values were extracted from patent US20260152480A1.

- ASSAY_REMARKS: Pharmacokinetic study of the drug, oral administration to rats (plasma, cerebrospinal fluid, brain tissue)
- Format: in vivo
- REPORTED_CONDITIONS: plasma, SD rat, 10 mg/kg, single
METRIC: MRT last (h)

C=CC(=O)N1CCC(c2ccc(Cl)nc2Nc2ccc(C(F)(F)F)cc2)CC1
6.89
C=CC(=O)N1CCC(c2nccnc2Nc2ccc(C(F)(F)F)cc2)CC1
4.48

(A) C=CC(=O)N1CCC(c2cccnc2Nc2ccc(C(F)(F)F)cc2)CC1
(B) C=CC(=O)N1CCC(c2cc(Cl)cnc2Oc2ccc(C(F)(F)F)cc2)CC1
(C) C=CC(=O)N1CCC(c2c(Nc3ccc(C(F)(F)F)cc3)ncc3ccccc23)CC1
Task: hey, can you rank those molecules up there by MRT last? biggest number first please In your reply, arrange the labels in the requested order.
Result: C, B, A
(C: 9.85 h, B: 6.75 h, A: 4.28 h)

(I) C=CC(=O)N1CCC(c2nccnc2Oc2ccc(C(F)(F)F)cc2)CC1
(II) C=CC(=O)N1CCC(c2cc(-c3cc[nH]n3)cnc2Nc2ccc(C(F)(F)F)cc2)CC1
Task: API: POST /compare with I and II ; response names the item with higher MRT last. Let me know the label of the one you choose.
Result: I

* * *

Each entry below carries its recorded IC50.
- Test system: YAP-TEAD
- ASSAY_REMARKS: Nano luciferase method to detect YAP-TEAD inhibitor activity (293T cells transfected with pGL3B-8×GTiiC-nLuc-CMV-fLuc)
- Format: cell-based
- REPORTED_CONDITIONS: Homo sapiens, HEK-293T; transfected 293T cells, 48 hours incubation; read-out: Nano Luciferas detection (IC50)

Sample answers from the record:
C=CC(=O)N1CCC(c2nccnc2Nc2ccc(C(F)(F)F)cc2)C1 (stereo not drawn)
≤ 100 nM
C=CC(=O)N1CCC(c2cc(-c3cccnc3)cnc2Nc2ccc(C(F)(F)F)cc2)CC1
100 to 1000 nM
C/C=C/C(=O)N1CCC(c2cccnc2Nc2ccc(C(F)(F)F)cc2)CC1
100 to 1000 nM
C=CC(=O)N1CCC(c2nc(C(F)(F)F)cnc2Nc2ccc(C(F)(F)F)cc2)CC1
≤ 100 nM
C=CC(=O)N1CC=C(c2cccnc2Nc2ccc(S(F)(F)(F)(F)F)cc2)CC1
≤ 100 nM

Task: Entry C=CC(=O)N1CCC(c2c(Nc3ccc(C(F)(F)F)cc3)ncc3ccccc23)CC1 , system YAP-TEAD: what IC50 was measured?
Result: 100 to 1000 nM

Task: // query: C=CC(=O)N1CC(c2cccnc2Nc2ccc(C(F)(F)F)cc2)C1
Result: 100 to 1000 nM

* * *

- Tested on: YAP-TEAD
- ASSAY_REMARKS: Nano luciferase method to detect YAP-TEAD inhibitor activity (293T cells transfected with pGL3B-8×GTiiC-nLuc-CMV-fLuc)
- Type: cell-based
- REPORTED_CONDITIONS: Homo sapiens, HEK-293T; transfected 293T cells, 48 hours incubation; read-out: Nano Luciferas detection (IC50)
METRIC: IC50

Sample answers from the record:
C=CC(=O)N1CCC(c2cc(-c3ccncc3)cnc2Nc2ccc(C(F)(F)F)cc2)CC1 [Compound T97]
100 to 1000 nM
C=CC(=O)N1CCC(c2cccnc2Nc2ccc(C)cc2)C1 (stereo not drawn) [Compound T13]
≤ 100 nM
C=CC(=O)N1CCC(c2cccnc2N(C)c2ccc(C(F)(F)F)cc2)CC1 [Compound T63]
100 to 1000 nM
C=CC(=O)N1CCC(c2cc(-c3cn[nH]c3)cnc2Nc2ccc(C(F)(F)F)cc2)CC1 [Compound T55]
100 to 1000 nM
C=CC(=O)N1CCC(c2cc(-c3cccs3)cnc2Nc2ccc(C(F)(F)F)cc2)CC1 [Compound T99]
100 to 1000 nM

Task: Recorded IC50 of C=CC(=O)N1CCC(c2ccc(Cl)nc2Nc2ccc(C(F)(F)F)cc2)CC1 [Compound T27] , please.
Result: ≤ 100 nM

* * *

- ASSAY_REMARKS: Pharmacokinetic study of the drug, oral administration to rats (plasma, cerebrospinal fluid, brain tissue)
- Type: in vivo
- REPORTED_CONDITIONS: plasma, SD rat, 10 mg/kg, single
METRIC: MRT last (h)

C=CC(=O)N1CCC(c2cccnc2Oc2ccc(C(F)(F)F)cc2)CC1 [Compound T59]
4.6
C=CC(=O)N1CCC(c2cc(-c3cnn(C)c3)cnc2Nc2ccc(C(F)(F)F)cc2)CC1 [Compound T61]
3.49
C=CC(=O)N1CCC(c2cc(C)cnc2Nc2ccc(C(F)(F)F)cc2)CC1 [Compound T22]
3.97

* * *

- Test system: YAP-TEAD
- ASSAY_REMARKS: Nano luciferase method to detect YAP-TEAD inhibitor activity (293T cells transfected with pGL3B-8×GTiiC-nLuc-CMV-fLuc)
- Format: cell-based
- REPORTED_CONDITIONS: Homo sapiens, HEK-293T; transfected 293T cells, 48 hours incubation; read-out: Nano Luciferas detection (IC50)
Each entry below carries its recorded IC50.

Sample answers from the record:
C=CC(=O)N1CCC(c2ccc(C(F)(F)F)nc2Nc2ccc(C(F)(F)F)cc2)CC1
100 to 1000 nM
CC/C=C/C(=O)N1CCC(c2cccnc2Nc2ccc(C(F)(F)F)cc2)CC1
100 to 1000 nM

Task: Recorded IC50 of C=CC(=O)N1CCC(c2cccnc2Nc2ccc(S(F)(F)(F)(F)F)cc2)C1 (centres unmarked) , please.
Result: ≤ 100 nM

Task: // query: C=CC(=O)N1CCC(c2cc(-c3ccccc3)cnc2Nc2ccc(C(F)(F)F)cc2)CC1
Result: ≤ 100 nM

Task: // query: C=CC(=O)N1CCC(c2cc(C)cnc2Oc2ccc(C(F)(F)F)cc2)CC1
Result: 100 to 1000 nM

Task: // query: C=CC(=O)N1CC=C(c2nccnc2Nc2ccc(C(F)(F)F)cc2)CC1
Result: ≤ 100 nM

Task: // query: C=CC(=O)N1CCC(c2cc(-c3ccn(C)n3)cnc2Nc2ccc(C(F)(F)F)cc2)CC1
Result: ≤ 100 nM

Task: // query: C=CC(=O)N1CCC(c2ccnnc2Nc2ccc(C(F)(F)F)cc2)CC1
Result: 100 to 1000 nM

Task: // query: C=CC(=O)N1CCC(c2ccc(OC)nc2Nc2ccc(C(F)(F)F)cc2)CC1
Result: ≤ 100 nM

Task: // query: C=CC(=O)N1CCC(c2cc(F)cnc2Oc2ccc(C(F)(F)F)cc2)CC1
Result: 100 to 1000 nM

Task: // query: C#CC(=O)N1CCC(c2cccnc2Nc2ccc(C(F)(F)F)cc2)CC1
Result: ≤ 100 nM

Task: // query: C=CC(=O)N1CCC(c2c(Cl)ccnc2Nc2ccc(C(F)(F)F)cc2)CC1
Result: ≤ 100 nM

Task: // query: C=CC(=O)N1CC2(C1)CN(c1nccnc1Nc1ccc(C(F)(F)F)cc1)C2
Result: ≤ 100 nM

Task: // query: C=CC(=O)N1CCC(c2nccnc2Nc2ccc(C(F)(F)F)cc2)CC1
Result: ≤ 100 nM

* * *

- Tested on: YAP-TEAD
- ASSAY_REMARKS: Nano luciferase method to detect YAP-TEAD inhibitor activity (293T cells transfected with pGL3B-8×GTiiC-nLuc-CMV-fLuc)
- Format: cell-based
- REPORTED_CONDITIONS: Homo sapiens, HEK-293T; transfected 293T cells, 48 hours incubation; read-out: Nano Luciferas detection (IC50)
pIC50: −log10 of the molar value.
METRIC: pIC50

C=CC(=O)N1CC=C(c2cccnc2Nc2ccc(C(F)(F)F)cc2)CC1 [Compound T2]
≥ 7.00
C=CC(=O)N1CCC(c2cc(C(F)(F)F)cnc2Nc2ccc(C(F)(F)F)cc2)CC1 [Compound T47]
6.00 to 7.00
C=CC(=O)N1CC=C(c2cccnc2Nc2ccc(C)cc2)CC1 [Compound T12]
≥ 7.00
C=CC(=O)N1CCC(c2ccc(F)nc2Nc2ccc(C(F)(F)F)cc2)CC1 [Compound T24]
≥ 7.00
C=CC(=O)N1CCC(c2cc(OC)cnc2Oc2ccc(C(F)(F)F)cc2)CC1 [Compound T73]
6.00 to 7.00

Please turn your attention to the following entry.
Task: Recorded pIC50 of C=CC(=O)N1CC(c2nccnc2Nc2ccc(C(F)(F)F)cc2)C1 [Compound T20] , please.
Result: ≥ 7.00
